Parameter: minimal effective dose. Scope: all listed entries.
- Test system: Anxiety in the Adult Male Rat
- PROCEDURE_TEXT: Suppression of Anxiety in the Adult Male Rat (rat conflict test)
- Assay type: in vivo, rats
- TEST_PARAMETERS: Rattus norvegicus, po, rat, po; read-out: Rat Conflict (MED, mg/kg) po

Worked set:
stdin: Any idea what minimal effective dose was measured for CCOCCN1C2=C(C(=O)Nc3ccc(Cl)s3)C(=O)CCN2c2ccc(F)cc21 ?
stdout: > 3 mg/kg

stdin: Any idea what minimal effective dose was measured for COCCN1C2=C(C(=O)Nc3cccs3)C(=O)CCN2c2ccc(F)cc21 ?
stdout: ~1 mg/kg

stdin: Any idea what minimal effective dose was measured for CCOCN1C2=C(C(=O)Nc3ccsc3)C(=O)CCN2c2ccc(F)cc21 ?
stdout: ~0.3 mg/kg

stdin: Any idea what minimal effective dose was measured for O=C1CCN2C(=C1C(=O)Nc1ccccc1F)N(CCNC(=O)C(F)(F)F)c1cc(F)ccc12 ?
stdout: > 10 mg/kg

stdin: Any idea what minimal effective dose was measured for COCCN1C2=C(C(=O)Nc3ccccc3F)C(=O)CCN2c2c(O)cccc21 ?
stdout: > 10 mg/kg

stdin: Any idea what minimal effective dose was measured for CN(C)CCCN1C2=C(C(=O)Nc3ccccc3F)C(=O)CCN2c2ccc(F)cc21 ?
stdout: > 10 mg/kg

Further cases:
stdin: Any idea what minimal effective dose was measured for CCOCN1C2=C(C(=O)Nc3ccc(Cl)s3)C(=O)CCN2c2ccc(F)cc21 ?
stdout: > 10 mg/kg

stdin: Any idea what minimal effective dose was measured for COCCN1C2=C(C(=O)Nc3ccccc3F)C(=O)CCN2c2c(OCc3ccccc3)cccc21 ?
stdout: > 10 mg/kg

stdin: Any idea what minimal effective dose was measured for COCCN1C2=C(C(=O)NC3CCCCC3)C(=O)CCN2c2ccc(F)cc21 ?
stdout: 10 mg/kg

stdin: Any idea what minimal effective dose was measured for CC(C)NC(=O)NCCN1C2=C(C(=O)Nc3ccccc3F)C(=O)CCN2c2ccc(F)cc21 ?
stdout: > 10 mg/kg

stdin: Any idea what minimal effective dose was measured for CCOCN1C2=C(C(=O)Nc3ccc(OC(C)C)cc3F)C(=O)CCN2c2ccc(F)cc21 ?
stdout: ≤ 3 mg/kg

stdin: Any idea what minimal effective dose was measured for CCOCN1C2=C(C(=O)Nc3ccccc3F)C(=O)CCN2c2ccc(F)c(F)c21 ?
stdout: 1 mg/kg

stdin: Any idea what minimal effective dose was measured for CCOCN1C2=C(C(=O)Nc3ccc(C)s3)C(=O)CCN2c2ccccc21 ?
stdout: 3 mg/kg

stdin: Any idea what minimal effective dose was measured for O=C1CCN2C(=C1C(=O)Nc1ccccc1F)N(CC(O)CO)c1cc(F)ccc12 (centres unmarked) ?
stdout: > 10 mg/kg

stdin: Any idea what minimal effective dose was measured for CNCCN1C2=C(C(=O)Nc3ccccc3F)C(=O)CCN2c2ccc(F)cc21 ?
stdout: 1 mg/kg

###

- MEASURED_ON: benzodiazepine site of the GABA-A receptor
- PROCEDURE_TEXT: Benzodiazepine Receptor Binding Assay (inhibition of 3H-flunitrazepam binding)
- TEST_PARAMETERS: read-out: GABAA Receptor Binding IC50
ASSAY_ENDPOINT: pIC50
Friendly reminder that pIC50 comes from taking -log10 of the concentration in mol/L.

Worked set:
stdin: Any idea what pIC50 was measured for CCOCN1C2=C(C(=O)Nc3ccc(OC)cc3F)C(=O)CCN2c2ccc(F)cc21 [Compound 97] ?
stdout: 9.39

stdin: Any idea what pIC50 was measured for CCOCN1C2=C(C(=O)Nc3cccs3)C(=O)CCN2c2ccccc21 [Compound 105] ?
stdout: 9.08

stdin: Any idea what pIC50 was measured for CCOCN1C2=C(C(=O)Nc3ccc(C)s3)C(=O)CCN2c2ccc(F)cc21 [Compound 133] ?
stdout: 9.17

stdin: Any idea what pIC50 was measured for CCOCCN1C2=C(C(=O)Nc3ccc(Cl)s3)C(=O)CCN2c2ccc(F)cc21 [Compound 132] ?
stdout: 8.50

stdin: Any idea what pIC50 was measured for O=C1CCN2C(=C1C(=O)Nc1ccccc1F)N(COCc1ccccc1)c1cc(F)ccc12 [Compound 167] ?
stdout: 9.59

We now examine a further compound.
stdin: Any idea what pIC50 was measured for COCCN1C2=C(C(=O)Nc3ccc(Cl)s3)C(=O)CCN2c2ccccc21 [Compound 146] ?
stdout: 8.68

###

Parameter: minimal effective dose. Scope: all listed entries.
- Tested on: Anxiety in the Adult Male Rat
- PROCEDURE_TEXT: Suppression of Anxiety in the Adult Male Rat (rat conflict test)
- Type: in vivo, rats
- TEST_PARAMETERS: Rattus norvegicus, po, rat, po; read-out: Rat Conflict (MED, mg/kg) po

Worked set:
stdin: Any idea what minimal effective dose was measured for COCCN1C2=C(C(=O)Nc3ccc(C)s3)C(=O)CCN2c2ccc(F)cc21 [Compound 143] ?
stdout: < 10 mg/kg

stdin: Any idea what minimal effective dose was measured for CCOCN1C2=C(C(=O)Nc3c(F)cccc3F)C(=O)CCN2c2ccc(F)cc21 [Compound 173] ?
stdout: > 10 mg/kg

stdin: Any idea what minimal effective dose was measured for CCOCN1C2=C(C(=O)Nc3ccc(OC(=O)OC)cc3F)C(=O)CCN2c2ccc(F)cc21 [Compound 100] ?
stdout: ~1 mg/kg

We now examine a further compound.
stdin: Any idea what minimal effective dose was measured for COCCN1C2=C(C(=O)Nc3ccccc3F)C(=O)CCN2c2ccc(Cl)cc21 [Compound 147] ?
stdout: > 10 mg/kg

###

- MEASURED_ON: benzodiazepine site of the GABA-A receptor
- PROCEDURE_TEXT: Benzodiazepine Receptor Binding Assay (inhibition of 3H-flunitrazepam binding)
- TEST_PARAMETERS: read-out: GABAA Receptor Binding IC50
Parameter: log10(IC50). Scope: all listed entries.
A value of 2 here means IC50 of 100 in nM, since values are log10.

Worked set:
stdin: Any idea what log10(IC50) was measured for COCCN1C2=C(C(=O)Nc3ccccc3F)C(=O)CCN2c2ccc(F)cc21 [Compound 163] ?
stdout: -0.21

stdin: Any idea what log10(IC50) was measured for CCOCN1C2=C(C(=O)Nc3ccccc3F)C(=O)CCN2c2cc(F)cc(F)c21 [Compound 112] ?
stdout: 1.12

stdin: Any idea what log10(IC50) was measured for O=C(Nc1c(F)cccc1F)OCCN1C2=C(C(=O)Nc3c(F)cccc3F)C(=O)CCN2c2ccc(F)cc21 [Compound 179] ?
stdout: 0.88

stdin: Any idea what log10(IC50) was measured for COCCN1C2=C(C(=O)Nc3ccc(Cl)cc3)C(=O)CCN2c2ccccc21 [Compound 156] ?
stdout: 1.20

stdin: Any idea what log10(IC50) was measured for CCOCN1C2=C(C(=O)Nc3ccc(Cl)s3)C(=O)CCN2c2ccc(F)cc21 [Compound 134] ?
stdout: 0.26

stdin: Any idea what log10(IC50) was measured for COCCN1C2=C(C(=O)Nc3ncc(C)s3)C(=O)CCN2c2ccccc21 [Compound 98] ?
stdout: 1.04

stdin: Any idea what log10(IC50) was measured for CCOCN1C2=C(C(=O)Nc3ccc(OC)cc3)C(=O)CCN2c2ccc(F)cc21 [Compound 104] ?
stdout: 0.02

We now examine a further compound.
stdin: Any idea what log10(IC50) was measured for COCCNCCN1C2=C(C(=O)Nc3ccccc3F)C(=O)CCN2c2ccc(F)cc21 [Compound 52] ?
stdout: 0.87

###

- MEASURED_ON: benzodiazepine site of the GABA-A receptor
- PROCEDURE_TEXT: Benzodiazepine Receptor Binding Assay (inhibition of 3H-flunitrazepam binding)
- TEST_PARAMETERS: read-out: GABAA Receptor Binding IC50; inhibition of 3H-flunitrazepam (ca. 3 nM) binding to membranes, 25°C; over 10,000 = not active
ASSAY_ENDPOINT: pIC50
Friendly reminder that pIC50 comes from taking -log10 of the concentration in mol/L.

Worked set:
stdin: Return pIC50 measured with benzodiazepine site of the GABA-A receptor given this molecule: CN(CCN1C2=C(C(=O)Nc3ccccc3F)C(=O)CCN2c2ccc(F)cc21)S(=O)(=O)C(F)(F)F [Compound 37]
stdout: 7.74

stdin: Return pIC50 measured with benzodiazepine site of the GABA-A receptor given this molecule: CN1CCCC(N2C3=C(C(=O)Nc4ccccc4F)C(=O)CCN3c3ccc(F)cc32)C1 (stereo not shown) [Compound 87]
stdout: 7.51

stdin: Return pIC50 measured with benzodiazepine site of the GABA-A receptor given this molecule: O=C1CCN2C(=C1C(=O)Nc1ccccc1F)N(CCNC(=O)c1ccc(C(F)(F)F)cc1)c1cc(F)ccc12 [Compound 42]
stdout: 7.77

We now examine a further molecule.
stdin: Return pIC50 measured with benzodiazepine site of the GABA-A receptor given this molecule: N#CCCNC(=O)CN1C2=C(C(=O)Nc3ccccc3F)C(=O)CCN2c2ccc(F)cc21 [Compound 36]
stdout: 8.48

###

- Tested on: Anxiety in the Adult Male Rat
- PROCEDURE_TEXT: Suppression of Anxiety in the Adult Male Rat (rat conflict test)
- Assay type: in vivo, rats
- TEST_PARAMETERS: Rattus norvegicus, po, rat, po; read-out: Rat Conflict (MED, mg/kg) po
ASSAY_ENDPOINT: minimal effective dose (mg/kg)
# number only, unit mg/kg dropped from output

Worked set:
stdin: Return minimal effective dose measured with Anxiety in the Adult Male Rat given this compound: CCOCN1C2=C(C(=O)Nc3ccc(OC)cc3F)C(=O)CCN2c2ccc(F)cc21 [Compound 97]
stdout: 0.03

stdin: Return minimal effective dose measured with Anxiety in the Adult Male Rat given this compound: CCOCCCN1C2=C(C(=O)Nc3ccccc3F)C(=O)CCN2c2ccc(F)cc21 [Compound 152]
stdout: 1

stdin: Return minimal effective dose measured with Anxiety in the Adult Male Rat given this compound: CCOCCN1C2=C(C(=O)Nc3ccnc(F)c3)C(=O)CCN2c2ccc(F)cc21 [Compound 130]
stdout: 1

stdin: Return minimal effective dose measured with Anxiety in the Adult Male Rat given this compound: O=C1CCN2C(=C1C(=O)Nc1ccccc1F)N(CCOCc1ccccc1)c1cc(F)ccc12 [Compound 171]
stdout: 10

stdin: Return minimal effective dose measured with Anxiety in the Adult Male Rat given this compound: COCCN1C2=C(C(=O)NC3CC3)C(=O)CCN2c2ccc(F)cc21 [Compound 118]
stdout: 10

Further cases:
stdin: Return minimal effective dose measured with Anxiety in the Adult Male Rat given this compound: CN(C)CCN1C2=C(C(=O)Nc3ccccc3F)C(=O)CCN2c2ccc(F)cc21 [Compound 74]
stdout: 3

stdin: Return minimal effective dose measured with Anxiety in the Adult Male Rat given this compound: COCCN1C2=C(C(=O)Nc3ccc(F)cc3F)C(=O)CCN2c2ccc(F)cc21 [Compound 136]
stdout: 0.3

stdin: Return minimal effective dose measured with Anxiety in the Adult Male Rat given this compound: CC1(C)OCC(CN2C3=C(C(=O)Nc4ccccc4F)C(=O)CCN3c3ccc(F)cc32)O1 (stereo not drawn) [Compound 164]
stdout: 10

stdin: Return minimal effective dose measured with Anxiety in the Adult Male Rat given this compound: CCOCN1C2=C(C(=O)Nc3cccs3)C(=O)CCN2c2ccc(F)cc21 [Compound 129]
stdout: 3

stdin: Return minimal effective dose measured with Anxiety in the Adult Male Rat given this compound: CCOCCN1C2=C(C(=O)Nc3cccs3)C(=O)CCN2c2ccc(F)cc21 [Compound 126]
stdout: 0.1

stdin: Return minimal effective dose measured with Anxiety in the Adult Male Rat given this compound: CCOCN1C2=C(C(=O)Nc3cccs3)C(=O)CCN2c2ccccc21 [Compound 105]
stdout: 10

stdin: Return minimal effective dose measured with Anxiety in the Adult Male Rat given this compound: O=C1CCN2C(=C1C(=O)Nc1ccccc1F)N(CCCO)c1cc(F)ccc12 [Compound 169]
stdout: 10
